Entry source: ChEMBL document CHEMBL1140964

System: Rattus norvegicus
EXPERIMENT_DESCRIPTION: Antiinflammatory activity against carrageenan-induced paw edema in Wistar rat at 100 mg/kg, po dose administered 1 hr before carrageenan challenge assessed after 3 hrs
Assay type: functional
EXPERIMENTAL_ENDPOINT: inhibition in vivo at 100 mg/kg
Units required after the number.

INSERT INTO assay_data (mol_smiles, target_or_test_system, experimental_endpoint, result) VALUES
  ('CCOC(=O)N1CCN(c2c(C(=O)N(CC)CC)c3nnc(C(C)C)n3c3ncccc23)CC1', 'Rattus norvegicus', 'inhibition in vivo at 100 mg/kg', '0%');

As a next step, examine the molecule that follows.
Query :: // fetch inhibition in vivo at 100 mg/kg given entry CCc1nnc2c(C(=O)N(CC)CC)c(NCCC(C)C)c3cccnc3n12
Result :: 41%

* * *

System: Rattus norvegicus
EXPERIMENT_DESCRIPTION: Antiinflammatory activity against carrageenan-induced paw edema in Wistar rat at 50 mg/kg, po dose administered 1 hr before carrageenan challenge assessed after 3 hrs
Format: functional
Criterion: inhibition in vivo at 50 mg/kg meeting or surpassing 60%. Met: fulfilled. Not met: not fulfilled.

Solved entries (count: 3):
INSERT INTO assay_data (mol_smiles, assigned_category) VALUES
  ('CCN(CC)C(=O)c1c(NCC(C)C)c2cccnc2n2c(C(C)C)nnc12', 'fulfilled'),
  ('CCN(CC)C(=O)c1c(NC(C)C)c2cccnc2n2c(C(C)C)nnc12', 'fulfilled'),
  ('CCN(CC)C(=O)c1c(OC(C)C)c2cccnc2n2c(C(C)C)nnc12', 'not fulfilled');

Query :: Quick check: does CCNc1c(C(=O)N(CC)CC)c2nnc(C(C)C)n2c2ccccc12 have inhibition in vivo at 50 mg/kg greater than or equal to 60%?
Result :: not fulfilled

Query :: Quick check: does CCN(CC)C(=O)c1c(N2CCN(C)CC2)c2ccccc2n2c(C(C)C)nnc12 have inhibition in vivo at 50 mg/kg greater than or equal to 60%?
Result :: not fulfilled

Query :: Quick check: does CCNc1c(C(=O)N(CC)CC)c2nnc(C(C)C)n2c2ncccc12 have inhibition in vivo at 50 mg/kg greater than or equal to 60%?
Result :: fulfilled

Query :: Quick check: does CCC(CC)Nc1c(C(=O)N(CC)CC)c2nnc(C(C)C)n2c2ncccc12 have inhibition in vivo at 50 mg/kg greater than or equal to 60%?
Result :: not fulfilled

Query :: Quick check: does CCc1nnc2c(C(=O)N(CC)CC)c(NCCC(C)C)c3cccnc3n12 have inhibition in vivo at 50 mg/kg greater than or equal to 60%?
Result :: not fulfilled

Query :: Quick check: does CCN(CC)C(=O)c1c(N(C)CC)c2cccnc2n2c(C(C)C)nnc12 have inhibition in vivo at 50 mg/kg greater than or equal to 60%?
Result :: fulfilled

* * *

Test system: Rattus norvegicus
EXPERIMENT_DESCRIPTION: Antiinflammatory activity against carrageenan-induced paw edema in Wistar rat at 100 mg/kg, po dose administered 1 hr before carrageenan challenge assessed after 3 hrs
Type: functional
Criterion: inhibition in vivo at 100 mg/kg meeting or surpassing 20%. Met: Fulfilled. Not met: Not fulfilled.

Solved entries (count: 6):
INSERT INTO results (mol_smiles, assigned_category) VALUES
  ('CCNc1c(C(=O)N(CC)CC)c2nnc(C(C)C)n2c2ccccc12', 'Fulfilled'),
  ('CCN(CC)C(=O)c1c(OC2CCN(C)CC2)c2cccnc2n2cnnc12', 'Not fulfilled'),
  ('CCN(CC)C(=O)c1c(NC(C)C)c2cccnc2n2c(C(C)C)nnc12', 'Fulfilled'),
  ('CCN(CC)C(=O)c1c(OCC(C)C)c2cccnc2n2c(C(C)C)nnc12', 'Not fulfilled'),
  ('CCNC(=O)c1c(N2CCN(C)CC2)c2cccnc2n2c(C(C)C)nnc12', 'Not fulfilled'),
  ('CCC(CC)Nc1c(C(=O)N(CC)CC)c2nnc(C(C)C)n2c2ncccc12', 'Fulfilled');

Query :: Quick check: does CCN(CC)C(=O)c1c(N2CCN(C)CC2)c2ccccc2n2c(C(C)C)nnc12 have inhibition in vivo at 100 mg/kg greater than or equal to 20%?
Result :: Fulfilled

Query :: Quick check: does CCCCOc1c(C(=O)N(CC)CC)c2nnc(C(C)C)n2c2ncccc12 have inhibition in vivo at 100 mg/kg greater than or equal to 20%?
Result :: Not fulfilled

Query :: Quick check: does CCN(CC)C(=O)c1c(NCC(C)C)c2ccccc2n2c(C(C)C)nnc12 have inhibition in vivo at 100 mg/kg greater than or equal to 20%?
Result :: Not fulfilled

Query :: Quick check: does CCN(CC)C(=O)c1c(N(C)CC)c2cccnc2n2c(C(C)C)nnc12 have inhibition in vivo at 100 mg/kg greater than or equal to 20%?
Result :: Fulfilled

Query :: Quick check: does CCN(CC)C(=O)c1c(NN2CCN(C)CC2)c2cccnc2n2c(C(C)C)nnc12 have inhibition in vivo at 100 mg/kg greater than or equal to 20%?
Result :: Not fulfilled

Query :: Quick check: does CCN(CC)C(=O)c1c(OC2CCN(C)CC2)c2cccnc2n2c(C(C)C)nnc12 have inhibition in vivo at 100 mg/kg greater than or equal to 20%?
Result :: Not fulfilled

Query :: Quick check: does CCN(CC)C(=O)c1c(NCC(C)C)c2cccnc2n2c(C(C)C)nnc12 have inhibition in vivo at 100 mg/kg greater than or equal to 20%?
Result :: Fulfilled

Query :: Quick check: does CCN(CC)C(=O)c1c(OC(C)C)c2cccnc2n2c(C(C)C)nnc12 have inhibition in vivo at 100 mg/kg greater than or equal to 20%?
Result :: Fulfilled

Query :: Quick check: does CCN(CC)C(=O)c1c(N2CCN(C)CC2)c2cccnc2n2c(C(C)C)nnc12 have inhibition in vivo at 100 mg/kg greater than or equal to 20%?
Result :: Fulfilled
